Assay: self-splicing fitness, log relative to wild type (ln ratio); higher = more splicing; Tetrahymena group I intron in knt gene, E. coli kanamycin selection, DiMSum; sequences stand for … in CUCUCU…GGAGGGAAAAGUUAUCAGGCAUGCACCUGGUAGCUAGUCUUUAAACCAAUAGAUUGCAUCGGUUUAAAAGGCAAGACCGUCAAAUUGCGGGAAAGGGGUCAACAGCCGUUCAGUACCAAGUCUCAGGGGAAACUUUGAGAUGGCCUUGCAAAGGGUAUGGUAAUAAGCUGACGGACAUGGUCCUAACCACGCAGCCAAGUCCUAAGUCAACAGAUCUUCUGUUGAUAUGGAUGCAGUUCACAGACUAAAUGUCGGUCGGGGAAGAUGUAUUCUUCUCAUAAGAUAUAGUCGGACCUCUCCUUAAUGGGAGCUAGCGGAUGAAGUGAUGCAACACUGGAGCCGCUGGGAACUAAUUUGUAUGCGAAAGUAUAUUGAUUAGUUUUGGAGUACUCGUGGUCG;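 also: selection with 25 µg/mL kanamycin versus none on LB agar overnight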
Settings: 37 °C
# if value of self-splicing fitness (ln) reaches -1, tag 1; if it stays below, tag -1

[
  {
    "entry.sequence": "GAUCAGCAAUAUUACGCUAU",
    "label.value": 1
  },
  {
    "entry.sequence": "CGUAAGCAAUAUUACGAGGA",
    "label.value": -1
  },
  {
    "entry.sequence": "UUCAAGCAAUAUUACGUCCG",
    "label.value": 1
  },
  {
    "entry.sequence": "CAGAAGCAAUAUUACGACAU",
    "label.value": -1
  },
  {
    "entry.sequence": "GAAUAGCAAUAUUACGAAUG",
    "label.value": -1
  },
  {
    "entry.sequence": "ACCAAGCAAUAUUACGAAGC",
    "label.value": 1
  },
  {
    "entry.sequence": "AAUAAGCAAUAUUACGGAAU",
    "label.value": 1
  },
  {
    "entry.sequence": "UCAGAGCAAUAUUACGCUAU",
    "label.value": -1
  },
  {
    "entry.sequence": "UACGAGCAAUAUUACGCACU",
    "label.value": -1
  },
  {
    "entry.sequence": "UUAAAGCAAUAUUACGUUGU",
    "label.value": -1
  },
  {
    "entry.sequence": "UAGCAGCAAUAUUACGCGUG",
    "label.value": 1
  },
  {
    "entry.sequence": "UUAUAGCAAUAUUACGAGUA",
    "label.value": -1
  },
  {
    "entry.sequence": "AGGCAGCAAUAUUACGGCUA",
    "label.value": 1
  },
  {
    "entry.sequence": "GAGAAGCAAUAUUACGGUUC",
    "label.value": -1
  },
  {
    "entry.sequence": "UGGGAGCAAUAUUACGGAGC",
    "label.value": -1
  },
  {
    "entry.sequence": "CGGUAGCAAUAUUACGCCUC",
    "label.value": 1
  },
  {
    "entry.sequence": "UCUAAGCAAUAUUACGACGU",
    "label.value": 1
  },
  {
    "entry.sequence": "CUGUAGCAAUAUUACGACGU",
    "label.value": -1
  },
  {
    "entry.sequence": "UAAGAGCAAUAUUACGACUA",
    "label.value": 1
  },
  {
    "entry.sequence": "AUCCAGCAAUAUUACGCGCA",
    "label.value": 1
  },
  {
    "entry.sequence": "GUUUAGCAAUAUUACGCCCG",
    "label.value": -1
  },
  {
    "entry.sequence": "UGUGAGCAAUAUUACGAGGC",
    "label.value": -1
  },
  {
    "entry.sequence": "ACGCAGCAAUAUUACGGCGC",
    "label.value": -1
  },
  {
    "entry.sequence": "UAUCAGCAAUAUUACGAUGA",
    "label.value": 1
  },
  {
    "entry.sequence": "GUGUAGCAAUAUUACGAGCU",
    "label.value": 1
  },
  {
    "entry.sequence": "CUAGAGCAAUAUUACGGUAU",
    "label.value": -1
  },
  {
    "entry.sequence": "GCAAAGCAAUAUUACGACUA",
    "label.value": 1
  },
  {
    "entry.sequence": "GCACAGCAAUAUUACGGCGC",
    "label.value": 1
  },
  {
    "entry.sequence": "CUGCAGCAAUAUUACGAUUC",
    "label.value": -1
  },
  {
    "entry.sequence": "GUCAAGCAAUAUUACGAGGC",
    "label.value": -1
  },
  {
    "entry.sequence": "UGAUAGCAAUAUUACGGGUG",
    "label.value": 1
  },
  {
    "entry.sequence": "GGCUAGCAAUAUUACGGUAG",
    "label.value": 1
  },
  {
    "entry.sequence": "GUCUAGCAAUAUUACGGUGG",
    "label.value": -1
  },
  {
    "entry.sequence": "GUAAAGCAAUAUUACGUAGG",
    "label.value": -1
  }
]
